Test: Relative HPLC elution times and hydrophobicities
Assay type: physicochemical
Settings: Buffer:CH3CN:MeOH 60:30:10
# if measured relative elution time (hydrophobicity) < 7: Satisfied  # else: Not satisfied

// known answers, use as guide
[
  {
    "Smiles record": "C[n+]1ccc(-c2ccc(Br)cc2)cc1",
    "Group label": "Not satisfied"
  },
  {
    "Smiles record": "C[n+]1ccc(-c2ccc(F)cc2)cc1",
    "Group label": "Satisfied"
  },
  {
    "Smiles record": "C[n+]1ccc(-c2ccc(I)cc2)cc1",
    "Group label": "Not satisfied"
  }
]

Let's switch to this compound now.
IN: Take the compound C[n+]1ccc(-c2ccccc2)cc1 and say whether its relative elution time (hydrophobicity) is less than 7.
OUT: Satisfied

###

Assay: Relative HPLC elution times and hydrophobicities
Type: physicochemical
Conditions: Buffer:CH3CN:MeOH 65:25:10
# if measured relative elution time (hydrophobicity) < 7: 1 (yes)  # else: 0 (no)

[
  {
    "Compound": "C[n+]1ccc(-c2ccc(F)cc2)cc1 [4F' MPP^+]",
    "Group label": "1 (yes)"
  },
  {
    "Compound": "C[n+]1ccc(-c2ccc(Cl)cc2)cc1 [4Cl' MPP^+]",
    "Group label": "0 (no)"
  },
  {
    "Compound": "C[n+]1ccc(-c2ccc(I)cc2)cc1 [4'I-MPP^+, 1-methyl-4-(4'-iodophenyl)pyridinium]",
    "Group label": "0 (no)"
  },
  {
    "Compound": "C[n+]1ccc(-c2ccccc2)cc1 [MPP^+, 1-methyl-4-phenylpyridinium]",
    "Group label": "1 (yes)"
  }
]

Let's switch to this compound now.
IN: Take the compound C[n+]1ccc(-c2ccc(Br)cc2)cc1 [4Br' MPP^+] and say whether its relative elution time (hydrophobicity) is less than 7.
OUT: 0 (no)

###

Assay: Relative HPLC elution times and hydrophobicities
Type: physicochemical
Details: Buffer:CH3CN 70:30
Assign relative elution time (hydrophobicity) to each entry below.
Answers are plain numbers.

Reference set, count: 4
[
  {
    "Compound": "C[n+]1ccc(-c2ccccc2)cc1 [MPP^+, 1-methyl-4-phenylpyridinium]",
    "Observed measurement": 5.92
  },
  {
    "Compound": "C[n+]1ccc(-c2ccc(Br)cc2)cc1 [4Br' MPP^+]",
    "Observed measurement": 9.67
  },
  {
    "Compound": "C[n+]1ccc(-c2ccc(Cl)cc2)cc1 [4Cl' MPP^+]",
    "Observed measurement": 8.66
  },
  {
    "Compound": "C[n+]1ccc(-c2ccc(F)cc2)cc1 [4F' MPP^+]",
    "Observed measurement": 6.44
  }
]

Let us move to another entry and its relative elution time (hydrophobicity).
IN: Fill in reported relative elution time (hydrophobicity) for this entry: C[n+]1ccc(-c2ccc(I)cc2)cc1 [4'I-MPP^+, 1-methyl-4-(4'-iodophenyl)pyridinium]
OUT: 11.76

Source of measurements: paper PMC6107127
